Assay: chemical genetic growth profiling, strain panel (AID 1159580);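 also: tested at 20 µM; growth read once vehicle control cultures reached saturation at 30 °C; 1 = growth at the plate median or of vehicle wells; lower values mean less growth of the strain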
Conditions: S. cerevisiae deletion strains, growth OD, locus YAL021C, strain ccr4, active compounds read low
Screen size: about 5,500 compounds; about 2,000 (36%) were called active. Another 18% or so got no clear call; they are omitted. Some of the results follow.
metric name: normalized growth
One number for each entry.

Below, each entry is followed by its recorded normalized growth result.
INSERT INTO results (compound, metric_name, result_value) VALUES
  ('Nc1nc(N)c2nc(-c3ccccc3)c(N)nc2n1', 'normalized growth', 1.01),
  ('C[C@@H]1CC[C@@]2(OC1)OC1C(O)C3C4CC[C@H]5C[C@H](O[C@@H]6O[C@H](CO)[C@H](O[C@@H]7O[C@H](CO)[C@@H](O)[C@H](O[C@@H]8OC[C@@H](O)[C@H](O)[C@H]8O)[C@H]7O[C@@H]7O[C@H](CO)[C@H](O)[C@H](O[C@@H]8O[C@H](CO)[C@@H](O)[C@H](O)[C@H]8O)[C@H]7O)[C@H](O)[C@H]6O)[C@H](O)C[C@]5(C)C4CC[C@]3(C)C1[C@@H]2C (stereo not given in full)', 'normalized growth', 0.988),
  ('CCOC(=O)C1C(C=C(C)C)C1(C)C (stereo not given)', 'normalized growth', 0.989),
  ('CN(N=O)C(=O)N[C@@H]1[C@@H](O)[C@H](O)[C@@H](CO)O[C@@H]1O', 'normalized growth', 1),
  ('COc1ccc(-c2cc(=O)c3c(O)c(OC)c(OC)c(OC)c3o2)cc1', 'normalized growth', 0.987),
  ('CC(C)(O)[C@@H]1CC[C@](C)([C@H]2[C@@H](O)C[C@@]3(C)C4C[C@H](O[C@@H]5O[C@H](CO)[C@@H](O)[C@H](O)[C@H]5O)C5C(C)(C)[C@@H](O[C@@H]6OC[C@@H](O)[C@H](O)[C@H]6O)CC[C@@]56C[C@@]46CC[C@]23C)O1 (stereo not given in full)', 'normalized growth', 0.988);

Record normalized growth for all entries; do not skip any.
1. C=CCc1ccccc1OCC(O)CNC(C)C (stereo not given)
2. CC(=O)O[C@H]1C[C@H](O[C@H]2[C@@H](O)C[C@H](O[C@H]3[C@@H](O)C[C@H](O[C@H]4CC[C@@]5(C)C(CCC6C5C[C@@H](O)[C@]5(C)[C@@H](C7=CC(=O)OC7)CC[C@]65O)C4)O[C@@H]3C)O[C@@H]2C)O[C@H](C)[C@H]1O[C@@H]1O[C@H](CO)[C@@H](O)[C@H](O)[C@H]1O (stereo not given in full)
3. O=C(O)c1cc(=O)c2ccccc2o1
4. CC(=O)Nc1ccc(O)cc1
5. COc1ccc(-c2cc(=O)c3c(OC)c(OC)c(OC)c(OC)c3o2)cc1
6. NCC(=O)CCC(=O)O
7. COC(=O)C1=C(C)NC(C)=C(C(=O)OCCN(C)Cc2ccccc2)C1c1cccc([N+](=O)[O-])c1 (stereo not given)
8. O=C1CC[C@]23C=CC(=O)NCCCCNCCCNC(=O)/C=C/c4ccc(c2c4)O[C@@H]3C1

OUTPUT:
1. 1
2. 1
3. 1.01
4. 1.02
5. 0.996
6. 1
7. 0.98
8. 1.02

---

Test: chemical genetic growth profiling, strain panel (AID 1159580)
Conditions: S. cerevisiae deletion strains, growth OD, locus YMR205C, strain PFK2, active compounds read low
The whole screen tested about 5,500 compounds, of which about 2,000 (36%) were called active. Another 18% or so got no clear call; they are omitted. The list shows a part of the results.
For each record, write down the corresponding normalized growth.
Answers are plain numbers.

A selection of reference data follows.
INSERT INTO assay_data (smiles_text, metric_name, result_value) VALUES
  ('O=C1CCc2cc(OCCCCc3nnnn3C3CCCCC3)ccc2N1', 'normalized growth', 0.989),
  ('CCN1CCN(c2cc3c(cc2F)c(=O)c(C(=O)O)cn3C2CC2)CC1', 'normalized growth', 1);

We now examine a further compound.
INPUT: Look at this compound and give its reported normalized growth. `CCn1cc(C(=O)O)c(=O)c2cc(F)c(N3CCNCC3)cc21`
OUTPUT: 1.01

---

Assay: chemical genetic growth profiling, strain panel (AID 1159580)
Settings: S. cerevisiae deletion strains, growth OD, locus YPL051W, strain arl3, active compounds read low
Out of some 5,500 compounds screened, about 2,000 (36%) were called active. Not shown: some 18% with an inconclusive outcome. The list shows a part of the results.
metric name: normalized growth
One number for each entry.

Illustrative cases are given below, each with its answer.
INSERT INTO measurements (molecule, result_value) VALUES
  ('Nc1ccc(C(=O)Oc2ccccc2)c(O)c1', 0.938),
  ('CCCN1C[C@H](CSC)C[C@@H]2c3cccc4[nH]cc(c34)C[C@H]21', 1.01),
  ('NC(=O)CC[C@@H](N)C(=O)O', 1),
  ('CC[C@]12C=CCN3CC[C@@]4(c5ccc(OC)cc5N(C)C4[C@@](O)(C(=O)OC)[C@@H]1OC(C)=O)[C@@H]32 (stereo partly specified)', 0.984);

Can you give me normalized growth for all of these, one by one?
1. N[C@H](CO)Cc1ccccc1
2. C[N+]1(CCCCC[N+]2(C)CCCC2)CCCC1
3. O=c1cc(-c2cccc(O)c2)oc2ccc(O)cc12
4. O=C(O)c1nc2cc(Cl)c(Cl)cc2[nH]c1=O

OUTPUT:
1. 1.03
2. 0.999
3. 0.92
4. 0.989

---

Kindly supply the reported normalized growth values for the records listed here.
Test: chemical genetic growth profiling, strain panel (AID 1159580);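 also: tested at 20 µM; growth read once vehicle control cultures reached saturation at 30 °C; 1 = growth at the plate median or of vehicle wells; lower values mean less growth of the strain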
Settings: S. cerevisiae deletion strains, growth OD, locus YNL248C, strain rpa49, active compounds read low
Among all 5,500 compounds or so, about 2,000 (36%) were called active. Not shown: some 18% with an inconclusive outcome. This is one part of the list.
Answers are plain numbers.

INSERT INTO measurements (compound, result_value) VALUES
  ('CCC(CCC(C)[C@H]1CCC2C3CC=C4C[C@@H](O)CC[C@]4(C)C3CC[C@@]21C)C(C)C (some centres undefined)', 1.01),
  ('COc1ccc(-c2cc(=O)c3ccccc3o2)cc1', 0.833),
  ('COc1cc2cc[n+]3cc4c(OC)c(OC)ccc4cc3c2cc1OC', 0.968),
  ('COC(=O)C1=C(C)NC(C)=C(C(=O)OCCN(C)Cc2ccccc2)C1c1cccc([N+](=O)[O-])c1 (centres undefined)', 0.968),
  ('O=c1c(-c2cc(O)c(O)c(O)c2)coc2cc(O)c(O)c(O)c12', 0.935);

Dear colleague, could you send me normalized growth for each of the items below? Thanks.
1. CC1=C2C(=CO[C@H](C)[C@H]2C)C(=O)C(C(=O)O)=C1O
2. COc1ccc(-c2cc(=O)c3c(OC)c(OC)c(OC)c(OC)c3o2)cc1

OUTPUT:
[1.01, 0.997]

---

Experiment: chemical genetic growth profiling, strain panel (AID 1159580);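 also: tested at 20 µM; growth read once vehicle control cultures reached saturation at 30 °C; 1 = growth at the plate median or of vehicle wells; lower values mean less growth of the strain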
Settings: S. cerevisiae deletion strains, growth OD, locus YPR141C, strain kar3
The campaign covered roughly 5,500 compounds. About 2,000 (36%) were called active. About 18% were inconclusive and are not listed. No stated cut-off is given here; in the data, active means normalized growth mostly below about 0.91 (no sharp cut-off); inconclusive means no clear call, values can overlap the other calls; inactive means mostly above about 0.92. This is one part of the list.
I would appreciate it if you answered using one of these outcomes: true (1) = active, false (0) = inactive

INSERT INTO measurements (compound, label_value) VALUES
  ('COc1cc2cc[n+]3cc4c(OC)c(OC)ccc4cc3c2cc1OC', 'false (0)');

Query compound follows.
INPUT: // outcome(item) with item = `C[N+]1(CCCCC[N+]2(C)CCCC2)CCCC1`
OUTPUT: false (0)

---

Kindly state normalized growth for each of the entries shown.
Assay: chemical genetic growth profiling, strain panel (AID 1159580);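 also: tested at 20 µM; growth read once vehicle control cultures reached saturation at 30 °C; 1 = growth at the plate median or of vehicle wells; lower values mean less growth of the strain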
Settings: S. cerevisiae deletion strains, growth OD, locus YDL101C, strain DUN1, active compounds read low
In all, about 5,500 compounds went through this assay and about 2,000 (36%) were called active. About 18% were inconclusive and are not listed. Some of the results follow.
Answers are plain numbers.

Hi there! I need normalized growth for each item below, if you can.
1. COc1cc([C@@H]2c3cc4c(cc3[C@H](OC(C)=O)[C@H]3COC(=O)[C@H]23)OCO4)cc(OC)c1OC
2. CC(=O)Nc1cccc(O)c1

OUTPUT:
0.998
1.02

Give normalized growth for each listed item.
1. COc1cc([C@@H]2c3cc4c(cc3C(O[C@@H]3O[C@@H]5CO[C@@H](c6cccs6)OC5[C@H](O)[C@H]3O)C3COC(=O)[C@@H]32)OCO4)cc(OC)c1O (some centres undefined)
2. CN1CCOC(c2ccccc2)c2ccccc2C1 (centres undefined)
3. Cc1ccc2c(c1)CCCN2CC(=O)N(c1ccccc1)C1CCCCC1
4. N#CCC(=O)c1cccc(CSc2ccccc2Cl)c1
5. CN1CCc2c(c3ccccc3n2Cc2ccccc2)C1
6. COc1cc(NC(=O)NS(=O)(=O)c2ccc(C)cc2)cc(C(F)(F)F)c1
7. CC1(C)CC(=O)c2c(S(C)(=O)=O)sc(Br)c2C1
8. CC(=O)c1csc(-c2ccc(C(F)(F)F)cc2)n1

OUTPUT:
[1.01, 1.02, 0.984, 0.974, 1.02, 0.99, 0.995, 0.977]

For each listed entry, give its normalized growth.
1. COc1ccc(-c2cc(=O)c3ccccc3o2)cc1OC
2. CC1NC(=O)NC1=O (centres undefined)
3. O=C(NCc1cccs1)c1csc(Cc2c(Cl)cccc2Cl)n1
4. CN(N=O)C(=O)N[C@@H]1[C@@H](O)[C@H](O)[C@@H](CO)O[C@@H]1O

OUTPUT:
1.02
1
0.981
1.01

Values compiled from PubChem BioAssay AID1159580.
